ASSAYED_TARGET: STAT6 (Homo sapiens, UniProt P42226)
Construct: endogenous in cells; host or cells: MOLM-16, KU-812, SKNO1, MB231, L1236
ASSAY_REMARKS: Immunoblotting (Western blot) analysis of STAT6 degradation efficiency of degraders in treated cells
Assay type: cell-based
SETUP_CONDITIONS: MOLM-16 cells, numeric bound, read-out: DC50 S6 MOLM-16
QUANTITY_MEASURED: DC50

Batch request: DC50 for each of the following molecules.
1. CC(C)(C)[C@H](NC(=O)c1cc2cc(C(F)(F)P(=O)(O)O)ccc2s1)C(=O)N1C[C@@H](OCCCCCC#Cc2cccc3c2CN(C2CCC(=O)NC2=O)C3=O)C[C@H]1C(=O)N1CCC[C@H](c2ccccc2)C1 (stereo partly drawn) [Compound 601]
2. CC(C)(C)[C@H](NC(=O)c1cc2cc(C(F)(F)P(=O)(O)O)ccc2s1)C(=O)N1C[C@H](NC(=O)CCCCCC#Cc2cccc3c2CN(C2CCC(=O)NC2=O)C3=O)C[C@H]1C(=O)Nc1ncc(-c2ccccc2)s1 (stereo partly drawn) [Compound 567]
3. O=C(CCN(C(=O)CN1CCCC[C@H](NC(=O)c2cc3cc(C(F)(F)P(=O)(O)O)ccc3s2)C1=O)c1ccc(Br)cc1)NCCCC#Cc1cccc2c1CN(C1CCC(=O)NC1=O)C2=O (stereo partly drawn) [Compound 664]

Output:
1. > 0.3 µM
2. > 0.3 µM
3. > 0.3 µM

###

System: STAT5
ASSAY_REMARKS: Immunoblotting (Western blot) analysis of STAT5 degradation efficiency of degraders in treated cells
Type: cell-based
SETUP_CONDITIONS: KU-812 cells, read-out: DC50 S5 KU-812
QUANTITY_MEASURED: DC50

CC(C)(C)[C@H](NC(=O)c1cc2cc(C(F)(F)P(=O)(O)O)ccc2s1)C(=O)N1CCC[C@H]1C(=O)N(CCC(=O)N1CCC(C#Cc2cccc3c2CN(C2CCC(=O)NC2=O)C3=O)CC1)c1ccc(Br)cc1 (stereo partly shown) [Compound 613]    > 10000 nM
CC(C)(C)[C@H](NC(=O)c1cc2cc(C(F)(F)P(=O)(O)O)ccc2s1)C(=O)N1CCC[C@H]1C(=O)N(CCC(=O)NCCCC#Cc1cccc2c1CN(C1CCC(=O)NC1=O)C2=O)c1ccc(-c2nccs2)cc1 (stereo partly shown) [Compound 655]    100 to 1000 nM
CC(C)(C)[C@H](NC(=O)c1cc2cc(C(F)(F)P(=O)(O)O)ccc2s1)C(=O)N1CCC[C@H]1C(=O)N(CCC(=O)N1CCC(Nc2cccc3c2CN(C2CCC(=O)NC2=O)C3=O)CC1)c1ccc(Br)cc1 (stereo partly shown) [Compound 615]    > 10000 nM

Alright, here's another compound for you.
Input: What value of DC50 has been recorded for this entry: CN(CCCC#Cc1cccc2c1CN(C1CCC(=O)NC1=O)C2=O)C(=O)CCN(C(=O)[C@@H]1CCCN1C(=O)[C@@H](NC(=O)c1cc2cc(C(F)(F)P(=O)(O)O)ccc2s1)C(C)(C)C)c1ccc(-c2nccs2)cc1 (stereo partly shown) [Compound 681]
Output: 100 to 1000 nM

###

ASSAYED_TARGET: STAT6 (Homo sapiens, UniProt P42226)
Construct: endogenous in cells; host or cells: MOLM-16, KU-812, SKNO1, MB231, L1236
Sequence (P42226 1-847): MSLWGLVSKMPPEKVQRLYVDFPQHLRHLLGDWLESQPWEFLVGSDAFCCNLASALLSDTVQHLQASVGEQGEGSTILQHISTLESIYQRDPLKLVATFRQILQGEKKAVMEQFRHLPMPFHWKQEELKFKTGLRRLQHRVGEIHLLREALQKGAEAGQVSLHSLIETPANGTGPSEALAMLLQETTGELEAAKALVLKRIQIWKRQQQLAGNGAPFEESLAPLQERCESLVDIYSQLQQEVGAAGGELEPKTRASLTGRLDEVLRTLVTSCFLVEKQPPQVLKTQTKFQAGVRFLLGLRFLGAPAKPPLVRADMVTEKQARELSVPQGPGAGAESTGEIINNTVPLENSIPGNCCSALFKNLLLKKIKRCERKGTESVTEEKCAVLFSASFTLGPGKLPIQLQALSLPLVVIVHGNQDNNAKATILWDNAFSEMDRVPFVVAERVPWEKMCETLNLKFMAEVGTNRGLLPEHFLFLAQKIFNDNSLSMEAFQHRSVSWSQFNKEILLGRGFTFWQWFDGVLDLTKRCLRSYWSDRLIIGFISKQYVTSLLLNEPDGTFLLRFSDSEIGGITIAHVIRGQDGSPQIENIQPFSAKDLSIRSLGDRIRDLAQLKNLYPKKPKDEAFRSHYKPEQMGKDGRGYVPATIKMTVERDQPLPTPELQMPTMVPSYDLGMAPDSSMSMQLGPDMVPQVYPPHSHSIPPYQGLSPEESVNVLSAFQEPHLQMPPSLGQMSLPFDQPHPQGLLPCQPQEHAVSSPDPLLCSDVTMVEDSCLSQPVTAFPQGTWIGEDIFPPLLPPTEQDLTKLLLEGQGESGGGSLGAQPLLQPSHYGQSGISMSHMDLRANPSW
ASSAY_REMARKS: Immunoblotting (Western blot) analysis of STAT6 degradation efficiency of degraders in treated cells
Format: cell-based
SETUP_CONDITIONS: L1236 cells, read-out: DC50 S6 L1236
So I've got a bunch of molecules here, and I need their DC50 values.

Cc1ncsc1-c1ccc([C@H](C)NC(=O)[C@@H]2C[C@@H](O)CN2C(=O)[C@@H](NC(=O)CCCNC(=O)CO[C@H]2C[C@@H](C(=O)N3CCC[C@H](c4ccccc4)C3)N(C(=O)[C@@H](NC(=O)c3cc4cc(C(F)(F)P(=O)(O)O)ccc4s3)C(C)(C)C)C2)C(C)(C)C)cc1 [Compound 436]    > 10 µM

Alright, here's another molecule for you.
Input: # query: DC50 | item Cc1ncsc1-c1ccc([C@H](C)NC(=O)[C@@H]2C[C@@H](O)CN2C(=O)[C@@H](NC(=O)CCNC(=O)COc2ccc3c(c2)CN(C(=O)[C@@H](NC(=O)c2cc4cc(C(F)(F)P(=O)(O)O)ccc4s2)C(C)(C)C)[C@H](C(=O)N2CCO[C@H](c4ccccc4)C2)C3)C(C)(C)C)cc1 [Compound 462] | system: STAT6 (Homo sapiens, UniProt P42226)
Output: > 10 µM
